molecular target: T1, soluble KIR3DL1*001-Fc (human, UniProt P43629 22-340); assay: BLI (Forte-Bio), partial fit, IgG
T1 construct: also called KIR3DL1 allele 001; KIR3DL1 allele-001 antigen; not shown: Fc domain

{"columns": ["binder", "koff (s⁻¹)"],
 "data": [
  ["ET160-77 (antibody, human IgG1, V domains shown, Tested as human IgG1 (hIgG1), lambda light chain) VH: EVQLVETGGGLVKPGGSLRLSCAASGFTFSDYYMSWIRQAPGKGLEWVSYISSSSSYTNYADSVKGRFTISRDNAKNSLYLQMNSLRAEDTAVYYCAREGIAAADAFDIWGQGTMVTVSS VL: SYELTQPPSVSVAPGQAATITCAGDNIESKSVNWYQQKPGQAPVLVVYDDTVRPSGIPERFSGSNSGNPATLTISRSEAGDEADYYCQVWDNRRDHVVFGGGTKVTVLG", 0.00222]
]}
